The measured values listed here are drawn from PubChem BioAssay AID2553.

# target.of.assay: Short transient receptor potential channel 6 (Mus musculus)
# protocol.details: mouse TRPC6 channel inhibitors, primary screen, cell-based, HEK293, membrane potential dye (AID 2553)
# condition.context: ACh-evoked depolarization, at 10 µM
The whole screen tested about 310,000 compounds, of which about 3,300 (1.1%) were called active.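 Rule for the calls: active = B-score under library mean minus 3 SD, initial fluorescence not abnormally high, positive integrated signal ratio; inactive = the rest.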 Only a selection was taken, and actives are over-represented in it overall.
Returns: one label drawn from active, inactive

Ask: Status in this test for "Cc1nnc(SCc2ccc(C(=O)c3ccc(Cl)cc3)o2)n1-c1ccccc1" ?
Result: active

Ask: Continue with COc1ccc(CN2C3CCCC2CC(NC(=O)c2cccc(F)c2)C3)cc1 (stereo not given)
Result: inactive

Ask: Continue with "CC(=O)c1c(O)cc2n(c1=O)-c1ccc(Cl)cc1C2(C)C"
Result: inactive

Ask: Continue with "Cc1csc2ncc(C(=O)N(Cc3ccccc3)c3ccccn3)c(=O)n12"
Result: inactive

Ask: Continue with "CN(C(=O)COc1nnc(-c2cccs2)c(-c2cccs2)n1)c1ccccc1"
Result: inactive

Ask: Continue with O=C(NCc1ccccc1Cl)C(=O)NCC1CCCN1S(=O)(=O)c1cccs1 (stereo not given)
Result: inactive

Ask: Continue with "O=S(=O)(Cc1nnnn1-c1ccccc1)c1ccccc1"
Result: inactive

Ask: Continue with Cc1nc(C(=O)NCc2ccccc2)sc1C1(C)CC(c2cccnc2)=NO1 (stereo not given)
Result: active

Ask: Continue with COc1cc(C2C(C(=O)c3cccs3)=C(O)C(=O)N2CCN2CCOCC2)ccc1OCCC(C)C (stereo not given)
Result: inactive

Ask: Continue with "Nc1c(N(CCO)C(=O)C2CCCCC2)c(=O)[nH]c(=O)n1Cc1ccccc1"
Result: inactive

* * *

# target.of.assay: Short transient receptor potential channel 6 (Mus musculus)
# protocol.details: mouse TRPC6 channel inhibitors, primary screen, cell-based, HEK293, membrane potential dye (AID 2553);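 for B-score: B-score derived from integrated fluorescence ratio over the kinetic read; more negative B-score means stronger inhibition of depolarization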
# condition.context: ACh-evoked depolarization, at 10 µM; hits give low values
In all, about 310,000 compounds went through this assay and about 3,300 (1.1%) were called active. This excerpt belongs to a sample that is enriched for actives.
measured.quantity: B-score

Below, 5 compounds whose answers are already recorded.
INSERT INTO results (compound, result) VALUES
  ('CCCN=C1NC(=O)C(CC(=O)NCCc2ccc(OC)c(OC)c2)S1 (centres undefined)', 'inactive'),
  ('Cn1c(=NC(=O)c2cnccn2)sc2ccccc21', '-6.66 (active)'),
  ('COc1ccccc1/C=C/CN1CCC(CO)(Cc2ccccc2)CC1', 'inactive'),
  ('CCOc1ccc(/C(O)=C2/C(=O)C(=O)N(Cc3cccnc3)C2c2ccc(N(C)C)cc2)c(C)c1 (centres undefined)', '-6.27 (active)'),
  ('Cn1c(=NC(=O)c2ccco2)sc2cccc(F)c21', 'inactive');

Ask: Entry "O=c1c(-c2ccc(Cl)cc2)[n+]([O-])c2ccccc2n1OCc1nc2ccccc2[nH]1" has what B-score?
Result: inactive

Ask: Continue with "CCOC(=O)N1CCC(NC(=O)CN2C(=O)COc3ccc(C(C)(C)C)cc32)CC1"
Result: -7.85 (active)

Ask: Continue with "COC(=O)c1ccc(OC(=O)c2cnccn2)cc1"
Result: inactive

Ask: Continue with CN(Cc1cccc2ncccc12)C(=O)CC1C(=O)NCCN1Cc1ccc(F)cc1 (centres undefined)
Result: inactive

Ask: Continue with CCOc1cccc(/C(O)=C2/C(=O)C(=O)N(CCOC)C2c2ccncc2)c1 (centres undefined)
Result: inactive
